Quick reference for IC50 among some compounds
- Tested On: UniProt P08842
- Sequence (P08842 whole entry): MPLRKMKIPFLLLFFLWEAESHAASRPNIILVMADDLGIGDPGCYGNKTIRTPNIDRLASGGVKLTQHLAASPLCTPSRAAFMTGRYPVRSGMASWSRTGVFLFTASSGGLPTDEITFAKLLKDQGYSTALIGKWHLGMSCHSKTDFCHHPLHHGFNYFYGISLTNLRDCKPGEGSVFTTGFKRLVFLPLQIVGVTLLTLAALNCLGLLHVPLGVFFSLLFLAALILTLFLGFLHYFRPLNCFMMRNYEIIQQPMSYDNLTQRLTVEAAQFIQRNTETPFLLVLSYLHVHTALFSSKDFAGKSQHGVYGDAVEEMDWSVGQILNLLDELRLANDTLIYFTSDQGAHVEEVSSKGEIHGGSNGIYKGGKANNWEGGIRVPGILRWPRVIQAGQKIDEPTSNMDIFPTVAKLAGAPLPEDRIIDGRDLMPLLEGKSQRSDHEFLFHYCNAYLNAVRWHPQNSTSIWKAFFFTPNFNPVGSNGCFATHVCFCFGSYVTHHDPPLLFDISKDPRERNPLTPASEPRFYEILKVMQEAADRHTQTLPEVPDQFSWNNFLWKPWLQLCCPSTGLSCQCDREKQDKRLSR
- Protocol: Inhibition of steroid sulfatase in JEG3 cell membrane
Measured Attribute: IC50 (µM)

In [3]: df
Out[3]:
                         structure_notation  measured_attribute  scale_unit  censoring_qualifier  measurement
0  COc1cc(CN(c2ccc(C#N)cc2)n2cnnc2)ccc1OS(N)(=O)=O                IC50          µM                    =         0.38
1  COc1cc(CN(c2ccc(C#N)cc2)n2cnnc2)cc(Cl)c1OS(N)(=O)=O                IC50          µM                    =        0.536
2  N#Cc1ccc(N(Cc2ccc(OS(N)(=O)=O)c(I)c2)n2cnnc2)cc1                IC50          µM                    =         0.19
3  COc1ccc(CN(c2ccc(C#N)cc2)n2cnnc2)cc1OS(N)(=O)=O                IC50          µM                    >           10
4  N#Cc1ccc(N(Cc2ccc(Br)c(OS(N)(=O)=O)c2)n2cnnc2)cc1                IC50          µM                    >           10
5  N#Cc1ccc(N(Cc2ccc(OS(N)(=O)=O)c(C#N)c2)n2cnnc2)cc1                IC50          µM                    >           10
